# measured.target: Cytochrome P450 1A2 (Homo sapiens, UniProt P05177)
# Sequence (P05177 whole entry): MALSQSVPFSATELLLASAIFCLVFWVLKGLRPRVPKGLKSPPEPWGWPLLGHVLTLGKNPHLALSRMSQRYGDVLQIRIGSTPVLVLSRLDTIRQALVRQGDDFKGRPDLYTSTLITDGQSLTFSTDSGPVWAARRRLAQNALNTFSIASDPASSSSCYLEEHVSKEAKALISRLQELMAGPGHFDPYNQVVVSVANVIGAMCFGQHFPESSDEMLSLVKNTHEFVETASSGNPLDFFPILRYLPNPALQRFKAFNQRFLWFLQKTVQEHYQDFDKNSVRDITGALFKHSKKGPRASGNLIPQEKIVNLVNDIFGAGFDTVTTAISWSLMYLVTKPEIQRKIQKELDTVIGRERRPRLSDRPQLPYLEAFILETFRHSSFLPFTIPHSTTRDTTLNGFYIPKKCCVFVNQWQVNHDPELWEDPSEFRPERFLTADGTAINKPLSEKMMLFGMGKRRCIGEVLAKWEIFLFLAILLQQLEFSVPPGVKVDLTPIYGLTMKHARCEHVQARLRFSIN
# experiment.notes: Drug metabolism assessed as human […]-mediated compound formation from 5 uM [14C]boceprevir after 120 mins by LC-MS/FSA method relative to total [14C]boceprevir
# Type: ADME
# measurement.setup: recombinant enzyme, 2 h
For each entry below, report its Compound recovery value.
One number for each entry, in %.

Please review the following examples before continuing.
INSERT INTO assay_data (compound, property_name, readout_unit, measured_value) VALUES
  ('CC(C)(C)NC(=O)N[C@H](C(=O)N1C[C@H]2[C@@H]([C@H]1C(=O)O)C2(C)C)C(C)(C)C', 'Compound recovery', '%', 0.29),
  ('CC(C)(C)NC(=O)N[C@H](C(=O)N1C[C@H]2[C@@H]([C@H]1C(=O)N[C@H](CC1CCC1)C(=O)C(N)=O)C2(C)C)C(C)(C)C', 'Compound recovery', '%', 31.72),
  ('CC(C)(C)NC(=O)N[C@H](C(=O)N1C[C@H]2[C@@H]([C@H]1C(N)=O)C2(C)C)C(C)(C)C', 'Compound recovery', '%', 1.37),
  ('CC(C)(C)NC(=O)N[C@H](C(=O)N1C[C@H]2[C@@H]([C@H]1C(=O)N[C@@H](CC1CCC1)[C@@H](O)C(N)=O)C2(C)C)C(C)(C)C', 'Compound recovery', '%', 0.34);

The recorded Compound recovery for entry CC(C)(C)NC(=O)N[C@H](C(=O)N1C[C@H]2[C@@H]([C@H]1C(=O)N[C@@H](CC1CCC1)C(=O)C(N)=O)C2(C)C)C(C)(C)C [BOCEPREVIR] equals 59.66
